- Test system: CCRF-CEM leukemia
- experimentalProtocol: NCI-60 one-dose screen, 48 h
- experimentalParameters: 10 µM unless noted
This is part of a sample that, as a whole, favours compounds with a hit. Of some 83,000 tested, about 20% had one in any assay. Activity calls are given as the source filed them. Rule for the calls: active = growth percent below 10; inactive = the rest.
Return exactly one item of active, inactive

IN: Fill in: this test's call for Cc1cc(Nc2ccc(C(=O)N3CCCC3)cc2)nc(NCCCNc2ccnc3cc(Cl)ccc23)n1 is ___
OUT: inactive

IN: For CCOC(=O)/C=C1\S/C(=N\Nc2cc(=O)[nH]c3ccccc23)N(c2ccccc2)C1=O then?
OUT: inactive

IN: Thanks! And Cc1nc2ccccc2c(/C=C/c2ccccc2)c1C(=O)/C=C/c1ccccc1 ?
OUT: active

IN: And N#Cc1cccc(C2C3=C(COC3=O)N(CCO)c3cc4c(cc32)OCO4)c1 (centres undefined) ?
OUT: active

IN: Check CCN(CC)CCCOc1ccc2ncnc(Nc3ccc(Oc4cccc(C(F)(F)F)c4)c(Cl)c3)c2c1 too.
OUT: active

IN: // repeat for O=C(Nc1ncc(Cc2ccccc2)s1)c1ccc2c(c1)OCCCO2 and report
OUT: inactive

IN: Quick one: Cc1ccc(-c2csc(N(C(=O)N3CCN(c4cc5c(cc4F)c(=O)c(C(=O)O)cn5C4CC4)CC3)c3ccccc3)n2)cc1
OUT: inactive

IN: Now try COc1cc(/C=C/C(=O)c2ccc(-n3cc(CN4CCN(c5cc6c(cc5F)c(=O)c(C(=O)O)cn6C5CC5)CC4)nn3)cc2)ccc1O .
OUT: inactive

IN: Again, but for Fc1cc(Nc2ccc3c(OCCCN4CCOCC4)cccc3n2)ccc1Cl
OUT: inactive

IN: What do you have for N#Cc1c(-c2ccccc2)nc(SCc2nnc(-c3ccc(Cl)cc3)o2)[nH]c1=O ?
OUT: inactive

IN: Same lookup for Cc1nc2c(c(=O)[nH]1)C(c1ccccc1)c1ccc3ccccc3c1O2 (centres undefined) , please.
OUT: inactive

IN: Now the compound COc1ccc(C2CC(c3cc(OC)c(OC)c(OC)c3)=NO2)cc1OCCCCOc1cc2c(cc1OC)C(=O)N1CCC[C@H]1C=N2 (some centres undefined)
OUT: inactive

IN: Do the same for O=S1(=O)C=C(c2ccccc2)C(c2ccccc2)=C1 please
OUT: active

IN: Next record, please: O=S(=O)(NCCCNc1nccc(-c2c(-c3cccc(F)c3)nc3occn23)n1)c1ccc(F)cc1
OUT: inactive

IN: C[n+]1ccc(CCc2c[nH]c3ccccc23)cc1 ?
OUT: inactive

IN: Next entry: CN1CCN(Cc2ccc(NC(=O)c3cncc(C#Cc4cnc5ccc(Cl)nn45)c3)cc2C(F)(F)F)CC1
OUT: active

IN: Request: Fc1ccc2[nH]cc(-c3nc(-c4c[nH]c5ccncc45)cs3)c2c1
OUT: active

IN: Also, COc1ccc(C[n+]2c3ccccc3n3c4ccc(N)cc4ccc32)c(OC)c1OC please.
OUT: inactive

IN: Same lookup for COc1cc(OC)c(C(=O)C(CN(C)C)CN(C)C)cc1OC , please.
OUT: active

----------
- System: IGROV1 ovarian
- experimentalProtocol: NCI-60 one-dose screen, 48 h (100 = growth as untreated, 0 = no growth, -100 = all killed)
- experimentalParameters: 10 µM unless noted
This is part of a sample that, as a whole, favours compounds with a hit. Of some 83,000 tested, about 20% had one in any assay.
measuredMetric: growth (%)
Supply the numeric figure in %, leaving out any unit text.

IN: Requested read-out growth, target or system IGROV1 ovarian, entry Cc1ccc(C2CC(c3nc(-c4ccc(Cl)cc4)oc3C)=NN2C(=O)c2ccncc2)cc1 (stereo not given)
OUT: 70.7

IN: Query CCOC(=O)/C=C1\S/C(=N\Nc2cc(=O)[nH]c3ccccc23)N(c2ccccc2)C1=O next
OUT: 105

IN: Subsequent entry: C/C(=N\O)[C@@H]1CC[C@]2(CO)CC[C@]3(C)[C@H](CC[C@@H]4[C@@]5(C)CCCNC(C)(C)[C@@H]5CC[C@]43C)[C@@H]12
OUT: 65.2

IN: Also, COc1cc(-c2nc3c(ncc4ccc(=O)n(-c5ccccc5)c43)s2)cc(OC)c1OC please.
OUT: 53.5

IN: Param item: CCCCNc1cc(-c2cn[nH]c2-c2cc(C)cc(OC)c2)nc(-c2cccnc2)n1
OUT: 115

----------
- Test system: RXF 393 renal
- experimentalProtocol: NCI-60 one-dose screen, 48 h (100 = growth as untreated, 0 = no growth, -100 = all killed)
- experimentalParameters: 10 µM unless noted
About 83,000 compounds went through this panel and 20% of them were active in at least one assay; those are over-represented in the sample as a whole.
The label Satisfied is reserved for growth strictly under 80%; Not satisfied covers values equal to or above it.

IN: Take the compound CCN(CC)c1ccc(/C=N/NC(=O)Cc2ccc(Nc3ccnc(C(F)(F)F)c3)cc2)c(O)c1 and say whether its growth is less than 80%.
OUT: Satisfied

IN: Another compound: Oc1c(CN2CCOCC2)cc(COCc2ccccc2)c2cccnc12
OUT: Satisfied

IN: Would you kindly repeat that for CC1(C)CC(=O)c2c(nn(-c3ccc(Br)cc3)c2-c2cn(-c3ccccc3)nc2-c2cccnc2)C1 ?
OUT: Not satisfied

IN: Now the compound O=C(/C=C/C12c3ccccc3C(c3ccccc31)C1C(=O)NC(=O)C12)c1ccc(Br)cc1 (centres undefined)
OUT: Satisfied

IN: Query C/C(=N\O)c1ccc(NC(=O)CSc2nnc(-c3cc(-c4ccc(S(N)(=O)=O)cc4)nc4ccccc34)n2-c2ccccc2)cc1 next
OUT: Not satisfied

IN: Now give it for CC(=C(c1ccc(OCCN2CCCCC2)cc1)c1ccc(OCCN2CCCCC2)cc1)c1ccc(Cl)cc1 too.
OUT: Satisfied

IN: Can you check O=C(CCl)NNc1nccc(Nc2ccc(S(=O)(=O)Nc3ccncc3)cc2)n1 next?
OUT: Satisfied

IN: Another compound to check: COC(=O)C(Cc1ccccc1)NC(=O)c1ccc(NC(=O)c2[nH]c(C)c(Cl)c2Cl)c(OC(C)C)c1 (centres undefined)
OUT: Not satisfied

IN: Now consider COc1ccc2c(c1)c(/C(O)=C1\COC(=O)C1=O)cn2Cc1ccc(F)cc1 .
OUT: Not satisfied

----------
- System: MDA-MB-435 melanoma
- experimentalProtocol: NCI-60 one-dose screen, 48 h
- experimentalParameters: 10 µM unless noted
The panel holds about 83,000 compounds, 20% with a hit somewhere; the sample as a whole holds those more often. Activity calls are given as the source filed them. Rule for the calls: active = growth percent below 10; inactive = the rest.
Could you please pick one outcome from this set? active, inactive

IN: Can you look up the reported call for Nc1c(C(=O)Nc2cccc(Cl)c2)sc2nc3c(cc12)CCCC3 for me?
OUT: inactive

IN: Also C/C=C(/C)n1cnc2c(Nc3ccccn3)nc(Cl)nc21 , if possible.
OUT: inactive

IN: Nc1[nH]c(=S)nc2oc(-c3ccccc3)c(-c3ccccc3)c12 ?
OUT: inactive

IN: Check COc1ccc(/C=C2\CN(C(=O)C(Cl)Cl)C/C(=C\c3ccc(OC)cc3)C2=O)cc1 too.
OUT: active

IN: Now give it for CC/C(Cc1ccccc1)=C(\c1ccc(OCCCN(C)C)cc1)c1ccc(OC(=O)NCc2ccccc2)cc1 too.
OUT: inactive

IN: And what about the molecule CN1CCN(C(=O)[C@@]2(C)CC[C@]3(C)CC[C@]4(C)C(=CC[C@@H]5[C@@]6(C)CCC(=O)NC(C)(C)[C@@H]6CC[C@]54C)[C@@H]3C2)CC1 ?
OUT: inactive

IN: Again, but for CCN1CCN(CC(=O)Nc2ccc(-c3cn4c(n3)sc3cc(Oc5ccnc(C(=O)NC)c5)ccc34)cc2)CC1
OUT: inactive

IN: Next molecule: C/C(=N\O)[C@@H]1CC[C@]2(CO)CC[C@]3(C)[C@H](CC[C@@H]4[C@@]5(C)CCCNC(C)(C)[C@@H]5CC[C@]43C)[C@@H]12
OUT: inactive

----------
- Tested on: HCC-2998 colon
- experimentalProtocol: NCI-60 one-dose screen, 48 h (100 = growth as untreated, 0 = no growth, -100 = all killed)
- experimentalParameters: 10 µM unless noted
Compounds without any hit were thinned out: in the full panel of roughly 83,000, 20% have a hit.
Provide the recorded growth for the entries that follow.
I only need the number, in %, no unit after it.

IN: Data request, read-out growth, for Cc1ccc2nc(/C(C#N)=C(/CCCO)NC(Cc3ccccc3)C(=O)OCc3ccccc3)[nH]c(=O)c2c1 (stereo not given)
OUT: -12.5

IN: Check COc1ccc(CCN2C(=O)/C(=C/c3ccc(C4Oc5ccccc5C5CC(c6ccccc6)=NN54)cc3)SC2=S)cc1 (stereo not given) too.
OUT: 104

IN: Request: COc1cccc(-c2cc(-c3cccc(Cl)c3)c(C#N)c(=O)[nH]2)c1
OUT: 98.7

IN: Moving on to CCN1CCN(CC(=O)Nc2nc3ccc(NCc4ccc(F)cc4)cc3s2)CC1
OUT: 110

IN: And what about the molecule Cc1ccc(NC(=O)Cn2c(Br)nc3c2c(=O)n(C)c(=O)n3C)cc1 ?
OUT: 83.7
